mass density: recorded values
procedure summary: mn = molality of the nth substance listed, in mol/kg
experimental setup: 333.15 K; 101 kPa; Liquid; Vibrating tube method; m2 = 0

# compound, units text, mass density
data = [
    ("C[S+](C)[O-] [dimethyl sulfoxide] + O=S(=O)([O-])C(F)(F)F.O=S(=O)([O-])C(F)(F)F.[Be+2]", "kg/m3", 1060.03),
    ("C[S+](C)[O-] [dimethyl sulfoxide] + [Ca+2].[O-][Cl+3]([O-])([O-])[O-].[O-][Cl+3]([O-])([O-])[O-]", "kg/m3", 1060.02),
    ("C[S+](C)[O-] [dimethyl sulfoxide] + [Mg+2].[O-][Cl+3]([O-])([O-])[O-].[O-][Cl+3]([O-])([O-])[O-]", "kg/m3", 1060.02),
    ("C[S+](C)[O-] [dimethyl sulfoxide] + [O-][Cl+3]([O-])([O-])[O-].[O-][Cl+3]([O-])([O-])[O-].[Sr+2]", "kg/m3", 1060.03),
    ("C[S+](C)[O-] [dimethyl sulfoxide] + O=S(=O)([O-])C(F)(F)F.[Na+]", "kg/m3", 1080.03),
    ("C[S+](C)[O-] [dimethyl sulfoxide] + [Ba+2].[O-][Cl+3]([O-])([O-])[O-].[O-][Cl+3]([O-])([O-])[O-]", "kg/m3", 1060.02),
]

* * *

procedure summary: mn = molality of the nth substance listed, in mol/kg
experimental setup: 323.15 K; 101 kPa; Liquid; Vibrating tube method; m2 = 0

# compound, units text, mass density
data = [
    ("C[S+](C)[O-] [dimethyl sulfoxide] + [Mg+2].[O-][Cl+3]([O-])([O-])[O-].[O-][Cl+3]([O-])([O-])[O-]", "kg/m3", 1070.08),
    ("C[S+](C)[O-] [dimethyl sulfoxide] + O=S(=O)([O-])C(F)(F)F.O=S(=O)([O-])C(F)(F)F.[Be+2]", "kg/m3", 1070.07),
    ("C[S+](C)[O-] [dimethyl sulfoxide] + [Ba+2].[O-][Cl+3]([O-])([O-])[O-].[O-][Cl+3]([O-])([O-])[O-]", "kg/m3", 1070.08),
]

* * *

procedure summary: mn = molality of the nth substance listed, in mol/kg
experimental setup: 293.15 K; 101 kPa; Liquid; Vibrating tube method; m2 = 0
measured attribute: mass density (kg/m3)

# compound, result value
rows = [
    ("CO [methanol] + O=S(=O)([O-])C(F)(F)F.O=S(=O)([O-])C(F)(F)F.[Be+2]", 791.179),
    ("C[S+](C)[O-] [dimethyl sulfoxide] + O=S(=O)([O-])C(F)(F)F.[Na+]", 1100.21),
    ("CO [methanol] + [Mg+2].[O-][Cl+3]([O-])([O-])[O-].[O-][Cl+3]([O-])([O-])[O-]", 791.17),
    ("CO [methanol] + [O-][Cl+3]([O-])([O-])[O-].[O-][Cl+3]([O-])([O-])[O-].[Sr+2]", 791.16),
    ("CO [methanol] + [Ba+2].[O-][Cl+3]([O-])([O-])[O-].[O-][Cl+3]([O-])([O-])[O-]", 791.18),
    ("C[S+](C)[O-] [dimethyl sulfoxide] + [O-][Cl+3]([O-])([O-])[O-].[O-][Cl+3]([O-])([O-])[O-].[Sr+2]", 1100.22),
]

* * *

mass density: recorded values
procedure summary: mn = molality of the nth substance listed, in mol/kg
experimental setup: 303.15 K; 101 kPa; Liquid; Vibrating tube method; m2 = 0
± gives the expanded uncertainty stated by the source.

# compound, mass density
records = [
    ("CO [methanol] + O=S(=O)([O-])C(F)(F)F.[Na+]", "781.714 ± 0.18 kg/m3"),
    ("C[S+](C)[O-] [dimethyl sulfoxide] + [Ba+2].[O-][Cl+3]([O-])([O-])[O-].[O-][Cl+3]([O-])([O-])[O-]", "1090.16 ± 0.31 kg/m3"),
    ("CO [methanol] + [O-][Cl+3]([O-])([O-])[O-].[O-][Cl+3]([O-])([O-])[O-].[Sr+2]", "781.721 ± 0.26 kg/m3"),
]
